Biological target: VHL Elongin B/C complex (Homo sapiens (Human), UniProt P40337)
Sequence (P40337 whole entry, looked up): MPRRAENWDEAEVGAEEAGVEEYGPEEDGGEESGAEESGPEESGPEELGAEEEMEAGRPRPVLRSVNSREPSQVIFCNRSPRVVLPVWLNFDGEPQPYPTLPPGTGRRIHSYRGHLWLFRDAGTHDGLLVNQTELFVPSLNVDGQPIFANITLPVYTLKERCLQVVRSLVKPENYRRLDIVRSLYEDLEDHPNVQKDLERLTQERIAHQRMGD
Sequence (Q15370 whole entry partner, looked up): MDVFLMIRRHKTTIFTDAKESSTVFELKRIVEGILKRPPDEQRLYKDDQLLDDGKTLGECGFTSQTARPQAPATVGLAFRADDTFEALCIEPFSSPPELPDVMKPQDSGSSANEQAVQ
Sequence (Q15369 whole entry partner, looked up): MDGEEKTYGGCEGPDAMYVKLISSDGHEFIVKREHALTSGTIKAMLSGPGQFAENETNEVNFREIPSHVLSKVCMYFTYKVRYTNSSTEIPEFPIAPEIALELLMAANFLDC
Assay: Fluorescence Polarization (FP) VHL Binding Assay
Conditions: VHL binding, FP assay; geometric mean where more than one measurement
Reported Metric: IC50 (µM)
Just the number in µM, nothing appended.

Record request: IC50 value, item Cc1cc([C@@H](C(=O)N2C[C@H](O)C[C@H]2C2=NOC(C)(c3ccc(-c4scnc4C)cc3)N2)C(C)C)on1 (single isomer, unassigned) [Example 129.1] 79

* * *

Test system: MYC expression
Test: Inhibition of MYC expression in MV-4-11 cells
Assay type: cell-based
Conditions: 4 h, maximum inhibition of MYC expression
Form field: Maximum Inhibition (%) (one value per entry).

Cc1ncsc1-c1ccc([C@]2(C)NC(C3C[C@@H](O)CN3C(=O)C(c3cc(OCCCCCNC(=O)c4cc5c(cc4CS(C)(=O)=O)-c4cn(C)c(=O)c6[nH]cc(c46)CN5c4ncc(F)cc4F)no3)C(C)C)=NC2=O)cc1 (single isomer, unassigned) [Example 1001.2]
98.4%
Cc1ncsc1-c1ccc([C@]2(C)NC(C3C[C@@H](O)CN3C(=O)C(c3cc(OCCCCCNC(=O)c4cc5c(cc4CS(C)(=O)=O)-c4cn(C)c(=O)c6[nH]cc(c46)CN5c4ncc(F)cc4F)no3)C(C)C)=NC2=O)cc1 (single isomer, unassigned) [Example 1001.1]
82.3%
Cc1ncsc1-c1ccc(C2(C)NC(C3C[C@@H](O)CN3C(=O)C(c3cc(OCCN4CC[C@H](NC(=O)c5cc6c(cc5CS(C)(=O)=O)-c5cn(C)c(=O)c7[nH]cc(c57)CN6c5ncc(F)cc5F)C4)no3)C(C)C)=NC2=O)cc1 (single isomer, unassigned) [Example 1002.1]
76.4%
Cc1ncsc1-c1ccc(C2(C)NC(C3C[C@@H](O)CN3C(=O)C(c3cc(OCCN4CC[C@H](NC(=O)c5cc6c(cc5CS(C)(=O)=O)-c5cn(C)c(=O)c7[nH]cc(c57)CN6c5ncc(F)cc5F)C4)no3)C(C)C)=NC2=O)cc1 (single isomer, unassigned) [Example 1002.2]
90.3%
Cc1ncsc1-c1ccc(C2(C)NC(C3C[C@@H](O)CN3C(=O)C(c3cc(OCCN4CC[C@H](NC(=O)c5cc6c(cc5CS(C)(=O)=O)-c5cn(C)c(=O)c7[nH]cc(c57)CN6c5ncc(F)cc5F)C4)no3)C(C)C)=NC2=O)cc1 (single isomer, unassigned) [Example 1002.3]
69.8%

Recall the recorded Maximum Inhibition (%) for Cc1ncsc1-c1ccc([C@]2(C)NC(C3C[C@@H](O)CN3C(=O)C(c3cc(OCCCCCNC(=O)c4cc5c(cc4CS(C)(=O)=O)-c4cn(C)c(=O)c6[nH]cc(c46)CN5c4ncc(F)cc4F)no3)C(C)C)=NC2=O)cc1 (single isomer, unassigned) [Example 1001.4] with MYC expression and state it. 75.7%

Now consider Cc1ncsc1-c1ccc(C2(C)NC(C3C[C@@H](O)CN3C(=O)C(c3cc(OCCN4CC[C@H](NC(=O)c5cc6c(cc5CS(C)(=O)=O)-c5cn(C)c(=O)c7[nH]cc(c57)CN6c5ncc(F)cc5F)C4)no3)C(C)C)=NC2=O)cc1 (single isomer, unassigned) [Example 1002.4] and answer again. 69.9%

Now consider Cc1ncsc1-c1ccc([C@]2(C)NC(C3C[C@@H](O)CN3C(=O)C(c3cc(OCCCCCNC(=O)c4cc5c(cc4CS(C)(=O)=O)-c4cn(C)c(=O)c6[nH]cc(c46)CN5c4ncc(F)cc4F)no3)C(C)C)=NC2=O)cc1 (single isomer, unassigned) [Example 1001.3] and answer again. 79.2%
